Molecular target: human RNMT-RAM complex (Homo sapiens, UniProt O43148)
Sequence (O43148 whole entry): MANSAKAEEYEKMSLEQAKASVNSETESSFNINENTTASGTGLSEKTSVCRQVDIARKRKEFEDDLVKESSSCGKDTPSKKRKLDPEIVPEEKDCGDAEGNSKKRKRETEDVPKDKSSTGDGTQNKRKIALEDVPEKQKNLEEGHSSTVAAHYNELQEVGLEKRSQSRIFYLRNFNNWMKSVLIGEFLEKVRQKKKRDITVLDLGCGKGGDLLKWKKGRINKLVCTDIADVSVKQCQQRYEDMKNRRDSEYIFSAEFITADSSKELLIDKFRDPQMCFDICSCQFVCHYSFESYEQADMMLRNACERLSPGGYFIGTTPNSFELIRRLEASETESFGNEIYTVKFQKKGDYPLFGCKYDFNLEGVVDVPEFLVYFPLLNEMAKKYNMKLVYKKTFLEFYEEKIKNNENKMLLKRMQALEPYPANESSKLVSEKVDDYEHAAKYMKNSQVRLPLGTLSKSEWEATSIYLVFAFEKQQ
Sequence (Q9BTL3 whole entry partner): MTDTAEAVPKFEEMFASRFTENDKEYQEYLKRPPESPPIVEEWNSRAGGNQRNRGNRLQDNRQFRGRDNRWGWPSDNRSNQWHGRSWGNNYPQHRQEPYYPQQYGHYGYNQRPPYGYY
Experiment: Biochemical activity assay for the human RNMT-RAM complex (MTase-Glo)
Conditions: read-out: hRNMT-RAM inhibition: Maximum response
We use 5% as the dividing line for Emax: on or above the line is class 1, below is class 0.

Take a look at these entries with their results.
> print(dat)
                                   compound  discretelabel
1  Cc1cnc(C(=O)NCc2ccc(CNC(=O)c3ccc(O)c(C)c3)cc2)c(C)c1 [RU-0834201]        class 1
2  Cc1cc(C)c(C(=O)NCc2ccc(CNC(=O)c3ccc(O)c(C)c3)cc2)cn1 [RU-0834181]        class 1
3  CCn1nc(C)c(C(=O)NCCc2ccc(CNC(=O)c3ccc4[nH]ncc4c3)cc2)c1C [RU-0834081]        class 1
4  Cc1nccc(C(=O)NCC2CCC3(CN(C(=O)c4cc(C)c5[nH]ncc5c4)C3)O2)c1C (centres unmarked) [RU-0834173]        class 0

**Query** Assess whether reported Emax for Cc1nc(C)c(C(=O)NCc2ccc(CNC(=O)c3ccc(O)c(F)c3)cc2)nc1C [RU-0834080] sits at 5% or higher.
**Result** class 1

**Query** Assess whether reported Emax for Cc1ccc(C)c(C(=O)NCC2CCC3(CN(C(=O)c4cc(C)c(O)c(C)c4)C3)O2)c1C (centres unmarked) [RU-0834178] sits at 5% or higher.
**Result** class 0

**Query** Assess whether reported Emax for Cc1cccc(C(=O)NCC2CCC3(CN(C(=O)c4cc(C)c5[nH]ncc5c4)C3)O2)c1F (centres unmarked) [RU-0834174] sits at 5% or higher.
**Result** class 1
